tested on: 743489-274-T-PDC complex spheroid growth; test: Anticancer human tumor 743489-274-T-PDC patient-derived renal cell carcinoma cell line growth inhibition [AhR]; conditions: second compound 1 µM; first compound 0.316 µM; active compounds read low;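 also: spheroids exposed to agents for 7 days before readout; 100% = DMSO vehicle control wells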
ASSAY ENDPOINT: viability, T/C (%)
Answers are plain numbers, in %.

The examples below pair each entry with its known result.
{"MOLECULE": "Nc1ccn(C2OC(CO)C(O)C2(F)F)c(=O)n1 (configuration not stated) + CC(CO)NC(=O)c1cc(-c2ccc(Cl)cc2)nn(-c2cnn(C)c2)c1=O", "TARGET DESC": "743489-274-T-PDC complex spheroid growth", "OBSERVED": 68.3}
{"MOLECULE": "CC1(C)CCC(CN2CCN(c3ccc(C(=O)NS(=O)(=O)c4ccc(NCC5CCOCC5)c([N+](=O)[O-])c4)c(Oc4cnc5[nH]ccc5c4)c3)CC2)=C(c2ccc(Cl)cc2)C1 + Cc1ccccc1N=Nc1ccc(NC(=O)c2ccnn2C)c(C)c1", "TARGET DESC": "743489-274-T-PDC complex spheroid growth", "OBSERVED": 99.6}
{"MOLECULE": "COc1cccc2c1C(=O)c1c(O)c3c(c(O)c1C2=O)CC(O)(C(=O)CO)CC3OC1CC(N)C(O)C(C)O1 (configuration not stated) + Cc1cncc(-c2nc(NCCc3c[nH]c4ccccc34)c3ncn(C(C)C)c3n2)c1", "TARGET DESC": "743489-274-T-PDC complex spheroid growth", "OBSERVED": 92.2}

The following molecules each have a reported value; give each one's viability, T/C.
1. Nc1ccccc1NC(=O)c1ccc(CNC(=O)OCc2cccnc2)cc1 + Cc1ccccc1N=Nc1ccc(NC(=O)c2ccnn2C)c(C)c1
2. COc1cccc2c1C(=O)c1c(O)c3c(c(O)c1C2=O)CC(O)(C(=O)CO)CC3OC1CC(N)C(O)C(C)O1 (configuration not stated) + CC(CO)NC(=O)c1cc(-c2ccc(Cl)cc2)nn(-c2cnn(C)c2)c1=O
3. CC1COCCN1c1cc(C2(S(C)(=N)=O)CC2)nc(-c2ccnc3[nH]ccc23)n1 (configuration not stated) + CC(CO)NC(=O)c1cc(-c2ccc(Cl)cc2)nn(-c2cnn(C)c2)c1=O

## Result
[88.2, 107, 95.3]
